Assay: Cereulide in organs and tissues, SIDA-MS
Format: in vivo, pig
Conditions: pig, content of large intestine, 150 ug/kg; single oral dose 150 μg kg^-1, necropsy after 48 h, SIDA-MS; read-out: Cereulide concentration in content of large intestine, average
outcomeMeasure: tissue level at time at 48 h (ng/g)
Just the number in ng/g, nothing appended.

Could you tell me which tissue level at time at 48 h is on file for CC(C)C[C@H]1OC(=O)[C@H](C(C)C)NC(=O)[C@H](C(C)C)OC(=O)[C@@H](C)NC(=O)[C@@H](CC(C)C)OC(=O)[C@H](C(C)C)NC(=O)[C@H](C(C)C)OC(=O)[C@@H](C)NC(=O)[C@@H](CC(C)C)OC(=O)[C@H](C(C)C)NC(=O)[C@H](C(C)C)OC(=O)[C@@H](C)NC1=O [cereulide] ?
67.9
